ASSAY_SYSTEM: T1, human monocarboxylate transporter 1 (MCT1) (human, UniProt P53985 1-500)
T1 sequence: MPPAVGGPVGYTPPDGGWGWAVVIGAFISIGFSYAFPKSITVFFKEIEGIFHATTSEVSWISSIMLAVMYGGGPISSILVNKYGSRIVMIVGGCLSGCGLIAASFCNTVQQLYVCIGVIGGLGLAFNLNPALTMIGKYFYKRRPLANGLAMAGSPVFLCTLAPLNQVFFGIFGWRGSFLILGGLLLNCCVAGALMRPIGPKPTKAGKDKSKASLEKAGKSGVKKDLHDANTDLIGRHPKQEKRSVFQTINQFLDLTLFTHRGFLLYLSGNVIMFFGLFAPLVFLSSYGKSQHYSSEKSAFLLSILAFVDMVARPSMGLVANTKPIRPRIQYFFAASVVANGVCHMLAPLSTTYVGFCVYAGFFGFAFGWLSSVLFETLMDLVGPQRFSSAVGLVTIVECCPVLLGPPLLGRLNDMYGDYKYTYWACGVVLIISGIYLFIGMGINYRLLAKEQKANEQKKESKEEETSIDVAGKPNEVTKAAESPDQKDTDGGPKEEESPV
ASSAY_NAME: cell-based or functional assay
IC50 of inhibition of CD8 T cell proliferation values by entry
Give a bare numeral; the unit nM is implied.

anti-human MCT1 antibody Ab14 (antibody, human IgG1, kappa, V domains shown, IgG1EN backbone) VH: QVQLVQSGAEVKKPGASVKVSCTVSGRSLTNYHLQWVRQAPGQGLEWMGFIRSSGNTEYNSEFKSRVTMTRDTSTSTVYMELSSLRSEDTAVYYCARNRWYHGTYYSPGYYVMDPWGQGTLVTVSS VL: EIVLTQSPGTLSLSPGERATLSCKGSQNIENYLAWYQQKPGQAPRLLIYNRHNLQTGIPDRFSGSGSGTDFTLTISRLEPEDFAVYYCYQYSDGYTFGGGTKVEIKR; 6

// recorded IC50 of inhibition of CD8 T cell proliferation for anti-human MCT1 antibody Ab21 (antibody, human IgG1, kappa, V domains shown, IgG1EN backbone) VH: QVQLVQSGAEVKKPGASVKVSCTVSGRSLTNYHLQWVRQAPGQGLEWMGFIRSSGNTEYNSEFKSRVTMTRDTSTSTVYMELSSLRSEDTAVYYCARNRWYHGTYYSPGYYVMDPWGQGTLVTVSS VL: EIVLTQSPGTLSLSPGERATLSCKGSQNINNYLAWYQQKPGQAPRLLIYNRHNLQTGIPDRFSGSGSGTDFTLTISRLEPEDFAVYYCYQYSDGYTFGGGTKVEIKR : 4

The reported IC50 of inhibition of CD8 T cell proliferation of the binder anti-human MCT1 antibody Ab1 (antibody, human IgG1, kappa, V domains shown, human IgG1 effector null (IgG1EN) backbone; also called humanized Framework antibody Ab1) VH: QVQLVQSGAEVKKPGASVKVSCTVSGFSLTNYHLQWVRQAPGQGLEWMGFIRSSGNTEYNSEFKSRVTMTRDTSTSTVYMELSSLRSEDTAVYYCARNSWYHGTYYSPGYYVMDAWGQGTLVTVSS VL: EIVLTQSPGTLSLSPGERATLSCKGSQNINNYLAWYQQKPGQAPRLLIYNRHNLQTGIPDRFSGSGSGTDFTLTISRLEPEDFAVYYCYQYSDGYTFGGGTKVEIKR was 42

Entry anti-human MCT1 antibody Ab15 (antibody, human IgG1, kappa, V domains shown, IgG1EN backbone) VH: QVQLVQSGAEVKKPGASVKVSCTVSGRSLTNYHLQWVRQAPGQGLEWMGFIRSSGNTEYNSEFKSRVTMTRDTSTSTVYMELSSLRSEDTAVYYCARNLWYHGTYYSPGYYVMDAWGQGTLVTVSS VL: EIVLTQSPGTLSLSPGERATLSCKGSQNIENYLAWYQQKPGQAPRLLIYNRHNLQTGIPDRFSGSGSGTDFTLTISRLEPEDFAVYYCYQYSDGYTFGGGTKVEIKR , IC50 of inhibition of CD8 T cell proliferation reported as 8

According to the records, this binder anti-human MCT1 antibody Ab12 (antibody, human IgG1, kappa, V domains shown, IgG1EN backbone) VH: QVQLVQSGAEVKKPGASVKVSCTVSGRSLTNYHLVWVRQAPGQGLEWMGFIRSSGNTEYNSEFKSRVTMTRDTSTSTVYMELSSLRSEDTAVYYCARNRWYHGTYYSPGYYVMDAWGQGTLVTVSS VL: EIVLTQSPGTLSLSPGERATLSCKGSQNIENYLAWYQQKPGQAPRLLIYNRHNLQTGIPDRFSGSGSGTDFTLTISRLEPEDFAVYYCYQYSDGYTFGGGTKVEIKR displays IC50 of inhibition of CD8 T cell proliferation of 5

Given item anti-human MCT1 antibody Ab16 (antibody, human IgG1, kappa, V domains shown, IgG1EN backbone) VH: QVQLVQSGAEVKKPGASVKVSCTRSGRSLTNYHLQWVRQAPGQGLEWMGFIRSSGNTEYNSEFKSRVTMTRDTSTSTVYMELSSLRSEDTAVYYCARNRWYHGTYYSPGYYVMDAWGQGTLVTVSS VL: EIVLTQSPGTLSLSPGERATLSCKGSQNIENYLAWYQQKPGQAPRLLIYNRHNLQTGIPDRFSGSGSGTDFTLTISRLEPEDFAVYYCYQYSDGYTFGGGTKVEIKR , the value recorded as its IC50 of inhibition of CD8 T cell proliferation is 3

Quick note, IC50 of inhibition of CD8 T cell proliferation for anti-human MCT1 antibody Ab19 (antibody, human IgG1, kappa, V domains shown, IgG1EN backbone) VH: QVQLVQSGAEVKKPGASVKVSCTVSGRSLTNYHLQWVRQAPGQGLEWMGFIRRSGNTEYNSEFKSRVTMTRDTSTSTVYMELSSLRSEDTAVYYCARNRWYHGTYYSPGYYVMDAWGQGTLVTVSS VL: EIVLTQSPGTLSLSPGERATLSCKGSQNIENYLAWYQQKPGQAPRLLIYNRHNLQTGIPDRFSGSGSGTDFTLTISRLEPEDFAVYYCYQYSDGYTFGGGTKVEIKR landed at 3

So for anti-human MCT1 antibody Ab10 (antibody, human IgG1, kappa, V domains shown, IgG1EN backbone) VH: QVQLVQSGAEVKKPGASVKVSCTVSGRSLTGYHLQWVRQAPGQGLEWMGFIRSSGNTEYNSEFKSRVTMTRDTSTSTVYMELSSLRSEDTAVYYCARNRWYHGTYYSPGYYVMDAWGQGTLVTVSS VL: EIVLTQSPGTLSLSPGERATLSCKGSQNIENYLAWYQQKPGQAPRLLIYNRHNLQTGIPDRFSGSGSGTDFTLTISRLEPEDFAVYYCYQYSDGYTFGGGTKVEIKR , the logged IC50 of inhibition of CD8 T cell proliferation turned out to be 7

The binder listed as anti-human MCT1 antibody Ab9 (antibody, human IgG1, kappa, V domains shown, IgG1EN backbone) VH: QVQLVQSGAEVKKPGASVKVSCTVSGRSLTNYHIQWVRQAPGQGLEWMGFIRSSGNTEYNSEFKSRVTMTRDTSTSTVYMELSSLRSEDTAVYYCARNRWYHGTYYSPGYYVMDAWGQGTLVTVSS VL: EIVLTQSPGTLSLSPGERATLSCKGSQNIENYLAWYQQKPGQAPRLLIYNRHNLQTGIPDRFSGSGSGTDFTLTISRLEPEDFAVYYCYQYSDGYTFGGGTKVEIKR has a reported IC50 of inhibition of CD8 T cell proliferation of 5

// IC50 of inhibition of CD8 T cell proliferation lookup, binder = anti-human MCT1 antibody Ab18 (antibody, human IgG1, kappa, V domains shown, IgG1EN backbone) VH: QVQLVQSGAEVKKPGASVKVSCTVSGRSLTNYHLGWVRQAPGQGLEWMGFIRSSGNTEYNSEFKSRVTMTRDTSTSTVYMELSSLRSEDTAVYYCARNRWYHGTYYSPGYYVMDAWGQGTLVTVSS VL: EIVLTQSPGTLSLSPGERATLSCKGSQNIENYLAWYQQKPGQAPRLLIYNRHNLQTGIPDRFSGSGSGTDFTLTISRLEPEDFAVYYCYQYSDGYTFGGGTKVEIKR , result: 2

Source of measurements: patent US20230111363A1
